Hello, the source for this data is patent KR20210063070A, in case you need it.

Target: T1, human B7-H3 expressed on the surface of human cancer cell lines (human, UniProt Q5ZPR3 29-534)
T1 construct: whole, on cells; also called 세포 표면 발현 B7-H3; CD276
T1 sequence (looked up): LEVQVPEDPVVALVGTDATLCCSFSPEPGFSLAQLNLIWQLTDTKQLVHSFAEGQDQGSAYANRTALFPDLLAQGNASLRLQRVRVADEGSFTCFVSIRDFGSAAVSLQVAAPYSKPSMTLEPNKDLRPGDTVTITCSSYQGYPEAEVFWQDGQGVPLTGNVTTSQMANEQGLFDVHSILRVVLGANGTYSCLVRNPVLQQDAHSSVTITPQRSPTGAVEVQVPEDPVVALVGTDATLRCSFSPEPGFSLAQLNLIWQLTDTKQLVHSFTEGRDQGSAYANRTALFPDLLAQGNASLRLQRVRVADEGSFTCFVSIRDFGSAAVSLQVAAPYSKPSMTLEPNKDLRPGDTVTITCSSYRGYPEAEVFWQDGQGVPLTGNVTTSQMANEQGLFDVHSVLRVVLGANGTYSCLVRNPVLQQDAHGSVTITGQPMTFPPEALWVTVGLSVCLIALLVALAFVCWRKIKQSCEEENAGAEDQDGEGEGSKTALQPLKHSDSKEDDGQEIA
Assay: flow cytometry on human cancer cell lines that express B7-H3

Binder | binding result
anti-B7-H3 antibody B5 (full IgG form) (antibody, V domains shown) VH: EVQLLESGGGLVQPGGSLRLSCAASGFTFSDYAMSWVRQAPGKGLEWVSSISSGSGSIYYADSVKGRFTISRDNSKNTLYLQMNSLRAEDTAVYYCAKNLIPLDYWGQGTLVTVSS VL: QSVLTQPPSASGTPGQRVTISCSGSSSNIGSNAVSWYQQLPGTAPKLLIYYNSHRPSGVPDRFSGSKSGTSASLAISGLRSEDEADYYCGSWDASLNAYVFGGGTKLTVLG | binds
